- assay-notes: small-molecule microarray binders of probe aLefty2, primary screen, biochemical, biotinylated probe, 635/667 nm fluorescence (AID 1094);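 further: score merges spot fluorescence near 667 nm with spot signal-to-noise ratio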
- run-conditions: higher = more signal
assay-endpoint: composite z-score
Numbers only.

// worked examples, composite z-score included
[[record]]
molecule = "O=C1OCCC/C=C\\[C@H]2OC34C=CCN(Cn5nnc6ccccc65)C(=O)[C@H]3N(CCCCCCO)C(=O)[C@@H]4C12 (some centres not stated)"
assay_endpoint = "composite z-score"
recorded_result = -0.181

[[record]]
molecule = "CC(=O)NCCCC[C@@H]1NC(=O)[C@@H]2C[C@H](C(=O)NCCCCCCNC(=O)CS)[C@H](c3cccc(OCCO)c3)N2C1=O"
assay_endpoint = "composite z-score"
recorded_result = 0.498

[[record]]
molecule = "O=C1[C@H]2C=C(Br)[C@H](C[C@@H]2OCCCCO)[C@@]12CO2"
assay_endpoint = "composite z-score"
recorded_result = -0.0778

[[record]]
molecule = "COC(=O)[C@@]1(Cc2ccc(F)cc2)[C@H]2c3cc(C(=O)N(C)C)n(Cc4nc5ccccc5[nH]4)c3C[C@H]2CN1C(=O)c1ccccc1"
assay_endpoint = "composite z-score"
recorded_result = 0.341

[[record]]
molecule = "C=C(CCCC)/C(=C/C[C@@H](OC(C)=O)c1ccccc1OCCO)c1cnc2ccccc2c1"
assay_endpoint = "composite z-score"
recorded_result = -0.0208

[[record]]
molecule = "NC(=O)[C@@H]1[C@H]2C(=O)O[C@H](c3ccccc3)[C@H](c3ccccc3)N2[C@H](c2ccc(O)cc2)[C@@]12C(=O)Nc1ccc(C#CC3(O)CCCCCC3)cc12"
assay_endpoint = "composite z-score"
recorded_result = -0.072


Q) I would be grateful if you could share the reported composite z-score for `COC(=O)[C@@]1(Cc2ccc(OC)cc2)[C@H]2c3cc(C(=O)N4CCCC4)n(Cc4ccccc4)c3C[C@H]2CN1C(=O)c1ccccc1` .
A) 1.62

* * *

- assay-notes: small-molecule microarray binders of probe aEGFR, primary screen, biochemical, biotinylated probe, 635/667 nm fluorescence (AID 1097);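 further: probe is a biotinylated anti-EGFR antibody binding compounds printed on slides; score combines fluorescence near 667 nm and signal to noise of each spot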
- run-conditions: higher = more signal
For each of the compounds below, state its composite z-score.
Give bare numbers.

// worked examples, composite z-score included
[[record]]
compound = "CCOC(=O)C1=CCC(c2ccc(C)cc2)N(S(=O)(=O)c2ccc(C)cc2)C1 (stereo unspecified)"
assay_endpoint = "composite z-score"
recorded_result = -0.121

[[record]]
compound = "C=CC[C@]1(C(=O)N2CCCCC2)N=C(c2ccc(OCCCO)cc2)O[C@H]1c1ccccc1"
assay_endpoint = "composite z-score"
recorded_result = 0.35

[[record]]
compound = "O=C1O[C@H](c2ccccc2)[C@H](c2ccccc2)N2[C@H]1[C@@H](C(=O)O)[C@]1(C(=O)Nc3ccc(C#CCCO)cc31)[C@H]2c1ccc(O)cc1"
assay_endpoint = "composite z-score"
recorded_result = 0.186

[[record]]
compound = "Cc1ccc(S[C@]2(C(=O)NCC(C)C)CC(=O)N(Cc3cc(C(F)(F)F)cc(C(F)(F)F)c3)[C@@H]2c2ccc(CO)cc2I)cc1"
assay_endpoint = "composite z-score"
recorded_result = -0.0824

[[record]]
compound = "Cc1ccc(S[C@]2(C(=O)NCC(F)(F)F)CC(=O)N(C(C)C)[C@@H]2c2ccc(CO)cc2I)cc1"
assay_endpoint = "composite z-score"
recorded_result = -0.2


Q) I would be grateful if you could share the reported composite z-score for CC(C)C(CO)N1C(=O)[C@@H]2[C@H]3C(=O)OCC=C[C@H]3OC23C=CCN(C(C)C)C(=O)[C@@H]13 (stereo partly specified) .
A) -0.194

* * *

For each of the compounds below, state its composite z-score.
- system-tested: Carbonic anhydrase 2 (Homo sapiens) (UniProt P00918)
- assay-notes: CAII small-molecule binders, profiling panel, biochemical, small-molecule microarray, Alexa647-labelled CAII (AID 1122)
- run-conditions: CAII-A647 binding fluorescence, higher = more signal

[[record]]
compound = "CN(C)CCCNC(=O)[C@@]1(c2ccc([N+](=O)[O-])cc2)CC(=O)N(C2CCCCC2)[C@@H]1c1ccc(CO)cc1I"
system_tested = "Carbonic anhydrase 2 (Homo sapiens) (UniProt P00918)"
assay_endpoint = "composite z-score"
recorded_result = 0.397

[[record]]
compound = "COCCCN1C(=O)[C@@]2(c3ccc([N+](=O)[O-])cc3)CC(=O)N(C3CCCCC3)[C@@H]2c2ccc(CO)cc21"
system_tested = "Carbonic anhydrase 2 (Homo sapiens) (UniProt P00918)"
assay_endpoint = "composite z-score"
recorded_result = -0.277

[[record]]
compound = "O=C1c2ccccc2[C@@]2(Cc3ccccc3N(CC(F)(F)F)C2=O)[C@H](c2ccc(CO)cc2)N1Cc1ccccc1Cl"
system_tested = "Carbonic anhydrase 2 (Homo sapiens) (UniProt P00918)"
assay_endpoint = "composite z-score"
recorded_result = -0.227

[[record]]
compound = "C=CC[C@]12N=C(c3ccc(OCCCO)cc3)O[C@H]1c1ccccc1N(Cc1ccccc1)C2=O"
system_tested = "Carbonic anhydrase 2 (Homo sapiens) (UniProt P00918)"
assay_endpoint = "composite z-score"
recorded_result = 0.669

[[record]]
compound = "O=C(NCc1ccc(F)cc1)[C@H]1C[C@H]2C(=O)N[C@@H](Cc3ccccc3)C(=O)N2[C@H]1c1ccc(O)cc1"
system_tested = "Carbonic anhydrase 2 (Homo sapiens) (UniProt P00918)"
assay_endpoint = "composite z-score"
recorded_result = 0.606


Batch: composite z-score for all items listed.
1. COCCOC(=O)N1C(=O)[C@@]2(c3cc(C#CC4=CCCCC4)ccc31)[C@H](C(=O)N1CCc3cc(OC)c(OC)cc3C1)[C@H]1C(=O)O[C@H](c3ccccc3)[C@H](c3ccccc3)N1[C@@H]2c1ccc(OCCO)cc1
2. CC(=O)NCCCC[C@@H]1NC(=O)[C@@H]2C[C@H](C(=O)NCCCCCCNC(=O)CS)[C@H](c3cccc(OCCO)c3)N2C1=O
3. CC(C)c1ccc(NN2C(C(O)C(c3ccccc3)c3ccccc3)C=CC3C(=O)N(c4ccccc4)C(=O)C32)cc1 (configuration not stated)
4. CCCCCN1CC=CC23O[C@@H]4/C=C\CCCOC(=O)C4[C@H]2C(=O)N(C(CO)C(C)C)[C@@H]3C1=O (some centres not stated)

A)
1. 0.194
2. 0.561
3. 0.797
4. 0.819

Batch: composite z-score for all items listed.
1. CCOC(=O)C[C@H]1[C@H](OC(=O)Cc2ccc3c(c2)OCO3)[C@@H](NC(=O)c2ccc(-c3ccccc3)cc2)c2cc(OCCCO)ccc2N1C(=O)c1ccc2ccccc2n1
2. O=C1O[C@@H](c2ccccc2)[C@@H](c2ccccc2)N2[C@@H](c3ccccc3OCCO)[C@]3(C(=O)Nc4ccc(C#CC5=CCCCC5)cc43)[C@@H](C(=O)Nc3nc4ccccc4s3)[C@H]12
3. O=C1OCCC/C=C\[C@H]2OC34C=CCN(Cn5nnc6ccccc65)C(=O)[C@H]3N(CCCCCCO)C(=O)[C@@H]4C12 (some centres not stated)

A)
0.0289
0.272
0.652

* * *

- Tested on: Sam68 (KHDRBS1)
- assay-notes: Sam68 small-molecule binders, primary screen, biochemical, small-molecule microarray, 635 nm fluorescence (AID 1125);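 further: score merges 667 nm channel intensity with signal to noise over triplicate slides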
- run-conditions: small-molecule microarray binding, higher = more signal
assay-endpoint: composite z-score
Numbers only.

[[record]]
compound = "COCC(=C=CC[C@@H](O)c1ccccc1OCCO)C[C@@H](O)c1cc(Cl)cc(Cl)c1O"
recorded_result = 1.3

[[record]]
compound = "COc1ccc(CCNC(=O)[C@@]2(C)c3ccccc3C(=O)N(Cc3cc(F)cc(C(F)(F)F)c3)[C@H]2c2ccc(CO)cc2)cc1"
recorded_result = -0.342

[[record]]
compound = "C=CCNC(=O)[C@H]1[C@@H]2C(=O)O[C@@H](c3ccccc3)[C@@H](c3ccccc3)N2[C@@H](c2ccc(OCCO)cc2)[C@]12C(=O)N(C(=O)OCCOC)c1ccccc12"
recorded_result = 1.3

[[record]]
compound = "CC(C)(C)OC(=O)CC[C@]1(C(=O)NCC(O)CO)COC(c2ccc(OCCCO)cc2)=N1 (some centres undefined)"
recorded_result = 0.949


Batch: composite z-score for all items listed.
1. COCCOC(=O)N1C(=O)[C@@]2(c3cc(C#Cc4ccc(OC)cc4)ccc31)[C@H](C(N)=O)[C@H]1C(=O)O[C@H](c3ccccc3)[C@H](c3ccccc3)N1[C@@H]2c1ccccc1OCCO
2. CCN(CC)c1ccc(N2CC=CC34O[C@@H]5/C=C\CCCOC(=O)C5[C@H]3C(=O)N(CCO)[C@@H]4C2=O)cc1 (some centres undefined)
3. COCCOC(=O)N1C(=O)[C@@]2(c3cc(C#CC4=CCCCC4)ccc31)[C@H](c1ccc(O)cc1)N1[C@H](c3ccccc3)[C@H](c3ccccc3)OC(=O)[C@H]1[C@@H]2C(N)=O
4. CC(C)(C)OC(=O)CC[C@]12N=C(c3ccc(OCCCO)cc3)O[C@H]1c1ccccc1N(CCS(=O)(=O)c1ccccc1)C2=O

A)
1. 1.3
2. -0.526
3. 1.01
4. 1.3

Q) I would be grateful if you could share the reported composite z-score for `Cc1ccc(S[C@]2(C(=O)NCC(F)(F)F)CC(=O)N(C(C)C)[C@@H]2c2ccc(CO)cc2I)cc1` .
A) -0.749
